B1: glmS ribozyme (parent)
chain: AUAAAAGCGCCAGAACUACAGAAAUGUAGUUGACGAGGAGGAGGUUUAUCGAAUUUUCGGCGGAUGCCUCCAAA

- Variants of: B1
- measurementNotes: self-cleavage kobs at 10000 uM GlcN6P; higher = faster cleavage; RNA array
- testParameters: with glucosamine-6-phosphate
Variants at the floor of the assay were thinned out.
self-cleavage kobs at 10000 uM GlcN6P: recorded values

Use these answered entries as a reference point.
- residueSequence: "AUAAAAGCGCCAGAACUACAGAAAUGUAGUUGCCGGGGAGGAGGUUUAUCGAAUUUUCGGCGGAUGCCUCCAAA [A33C A36G]"
  reportedValue: "< 1e-05 s⁻¹"
- residueSequence: "AUAAAAGCGCCAGAACUACAGAAAUGUAGUUCACAAGGAGGAGGUUUAUCGAAUUUUCGACGGAUGCCUCCAAA [G32C G35A G60A]"
  reportedValue: "< 1e-05 s⁻¹"
- residueSequence: "AUAAAAGCGGCAGAACUACAGAAAUGUAGUUGAAGAGGAGGAGGUUUAUCGAAUUUUCGGCGGAUGGCUCCAAA [C10G C34A C67G]"
  reportedValue: "0.00066 s⁻¹"
- residueSequence: "AUAAAAGCGCCAGAACUACAGAAAUGUAGUUGAUGAGGAAGAGGUUUAUCGAAUUUUCGGCGGAUGCCUCCAAA [C34U G40A]"
  reportedValue: "< 1e-05 s⁻¹"
- residueSequence: "AUAAAAGCGCCCGAACUACAGAAAUGUAGAUGACAAGGAGGAGGUUUAUCGAAUUUUCGGCGGAUGCCUCCAAA [A12C U30A G35A]"
  reportedValue: "< 1e-05 s⁻¹"

Q) // query self-cleavage kobs at 10000 uM GlcN6P value for entry AUAAAAGCGCCAGACGUACAGAAAUGUAGUUGACGAGGAGGAGGUUUAUCGAAUUAUCGGGGGAUGCCUCCAAA [A15C C16G U56A C61G]
A) < 1e-05 s⁻¹

Q) // query self-cleavage kobs at 10000 uM GlcN6P value for entry AUAAAAGCGCCAGAACUACAGAAAUGUAGUUGACGAGGAUGAGGUUUAUCGUAUUUUCGGCGGAUGCCUCCAAA [G40U A52U]
A) 8.17e-05 s⁻¹

Q) // query self-cleavage kobs at 10000 uM GlcN6P value for entry AUAAAAGCGCCAGAGCUACAGAAAUGUAGGUGACGAGGAGGAGGUUUAUCGAAUUUUCGGCGGAUGCCUUCAAA [A15G U30G C70U]
A) 0.0318 s⁻¹

Q) // query self-cleavage kobs at 10000 uM GlcN6P value for entry AUAAAAGCGCCAGAACUACAGAAAUGUAGUUGACGAGGAGGAGGUUUAUCGAAUUUUCGGCGGCUGCCUCCAAA [A64C]
A) 0.000157 s⁻¹
